Molecular target: CD28 (Homo sapiens, UniProt P10747)
Test: Jurkat/IL2 + CHO/OKT3 +/- PD-L1 reporter assay: PD-L1-dependent CD28 costimulation
Format: cell-based
Parameters: host or cells: Jurkat cells expressing an IL-2-luciferase reporter
Details: Table E12; Jurkat/IL2 + CHO/OKT3/PD-L1; 5.0 nM

| molecule | Fold Increase over WT CD80-IgV-Fe |
| --- | --- |
| E35D/D46E/A91G (protein) VIHVTKEVKEVATLSCGHNVSVEELAQTRIYWQKDKKMVLTMMSGEMNIWPEYKNRTIFDITNNLSIVILALRPSDEGTYECVVLKYEKDGFKREHLAEVTLSVKAD | 1.0 |
| D46V/M47I/A71G (protein) VIHVTKEVKEVATLSCGHNVSVEELAQTRIYWQKEKKMVLTMMSGVINIWPEYKNRTIFDITNNLSIVILGLRPSDEGTYECVVLKYEKDAFKREHLAEVTLSVKAD | 4.0 |
| V22A/E35D/M47L/A71G (protein) VIHVTKEVKEVATLSCGHNVSAEELAQTRIYWQKDKKMVLTMMSGDLNIWPEYKNRTIFDITNNLSIVILGLRPSDEGTYECVVLKYEKDAFKREHLAEVTLSVKAD | 6.5 |
| E35D/M43I/D46E/A71G/L85M (protein) VIHVTKEVKEVATLSCGHNVSVEELAQTRIYWQKDKKMVLTMISGEMNIWPEYKNRTIFDITNNLSIVILGLRPSDEGTYECVVMKYEKDAFKREHLAEVTLSVKAD | 3.7 |
| Q27L/E35D/M47V/I61V/L85M (protein) VIHVTKEVKEVATLSCGHNVSVEELALTRIYWQKDKKMVLTMMSGDVNIWPEYKNRTIFDVTNNLSIVILALRPSDEGTYECVVMKYEKDAFKREHLAEVTLSVKAD | 2.9 |
